target-desc: BCL2A1 (A1) - NOXA binding (Mus musculus, UniProt Q07440, C113S/P104K)
Construct: A1 residues 1-152 (P104K, C113S) were expressed in the BL21 strain of Escherichia coli; hexa-His-MBP (cleaved yes); made in house; host or cells: Escherichia coli BL21
Sequence (Q07440 1-152 P104K/C113S): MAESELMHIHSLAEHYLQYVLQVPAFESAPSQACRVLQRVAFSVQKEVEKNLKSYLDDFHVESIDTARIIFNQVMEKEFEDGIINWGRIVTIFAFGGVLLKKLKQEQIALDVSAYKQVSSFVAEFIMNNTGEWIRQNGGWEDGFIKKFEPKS
protocol-text: Competition fluorescence polarization assay, displacement of FITC-labeled mNOXA peptide from A1
condition-description: compound alone; inhibition of A1-NOXA binding; read-out: IC50
measured-endpoint: pIC50
// pIC50 here means minus log10 of the molar concentration (mol/L)

Problem: Recorded pIC50 of Cc1cc(N)ccc1/N=N/c1ccc(/N=N/c2ccc3cc(S(=O)(=O)O)cc(S(=O)(=O)O)c3c2)c(C)c1 , please.
Result: 4.77
